# Assay Target: Epidermal growth factor receptor (Homo sapiens) (UniProt P00533)
# Sequence (P00533 whole entry, looked up): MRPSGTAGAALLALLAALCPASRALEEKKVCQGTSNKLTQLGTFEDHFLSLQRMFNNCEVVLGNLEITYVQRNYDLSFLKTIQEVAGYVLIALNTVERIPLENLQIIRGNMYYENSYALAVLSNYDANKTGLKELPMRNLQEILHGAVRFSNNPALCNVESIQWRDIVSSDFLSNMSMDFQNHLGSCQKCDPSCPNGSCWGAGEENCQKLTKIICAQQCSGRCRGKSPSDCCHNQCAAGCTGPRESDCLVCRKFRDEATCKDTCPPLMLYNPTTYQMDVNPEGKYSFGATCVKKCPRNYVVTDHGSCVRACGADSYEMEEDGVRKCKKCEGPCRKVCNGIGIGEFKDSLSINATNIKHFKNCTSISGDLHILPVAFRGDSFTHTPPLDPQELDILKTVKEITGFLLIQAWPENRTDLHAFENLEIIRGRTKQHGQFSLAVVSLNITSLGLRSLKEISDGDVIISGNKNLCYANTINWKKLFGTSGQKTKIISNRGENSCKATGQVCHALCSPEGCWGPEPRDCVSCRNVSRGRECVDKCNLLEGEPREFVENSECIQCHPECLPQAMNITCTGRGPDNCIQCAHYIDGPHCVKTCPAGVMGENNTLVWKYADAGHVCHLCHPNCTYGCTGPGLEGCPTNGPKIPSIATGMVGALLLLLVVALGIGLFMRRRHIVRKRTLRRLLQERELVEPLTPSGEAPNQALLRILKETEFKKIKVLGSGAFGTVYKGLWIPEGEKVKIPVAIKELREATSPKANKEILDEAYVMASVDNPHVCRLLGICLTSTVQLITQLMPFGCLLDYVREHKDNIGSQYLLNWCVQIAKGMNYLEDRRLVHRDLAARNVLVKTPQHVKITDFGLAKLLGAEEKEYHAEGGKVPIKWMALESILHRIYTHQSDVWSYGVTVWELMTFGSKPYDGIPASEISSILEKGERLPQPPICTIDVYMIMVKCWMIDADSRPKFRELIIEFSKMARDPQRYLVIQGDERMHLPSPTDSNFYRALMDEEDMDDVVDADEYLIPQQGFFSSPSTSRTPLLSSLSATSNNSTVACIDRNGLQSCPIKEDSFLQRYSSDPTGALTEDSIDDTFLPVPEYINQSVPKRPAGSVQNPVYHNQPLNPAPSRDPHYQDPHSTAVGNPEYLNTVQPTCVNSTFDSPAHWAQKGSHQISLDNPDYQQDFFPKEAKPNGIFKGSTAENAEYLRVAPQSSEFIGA
# Protocol Notes: EGFR binders on small-molecule microarrays, primary screen, biochemical, small-molecule microarray, 635 nm fluorescence (AID 1104);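 note: score merges 667 nm emission intensity with spot signal to noise over triplicate slides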
# Test Parameters: EGFR binding, higher = more signal
Reported Metric: composite z-score

Example entries and their recorded answers appear below.
> print(dat)
                                   compound    reported.metric  data.value
1  COC(=O)[C@@]1(Cc2ccccc2)[C@H]2c3cc(C(=O)N(C)C)n(CCF)c3C[C@H]2CN1C(=O)c1ccccc1  composite z-score      -0.469
2  COc1c(C)cc(-c2nc(-c3ccccc3)c3c(c2C)CO[Si]3(C(C)C)C(C)C)cc1C  composite z-score       0.387

**Q:** Query (compound): CCCCC(=C=CC[C@H](O)c1cccc(OCCO)c1)C[C@H](O)c1cc(Cl)cc(Cl)c1O ; field requested: composite z-score
**A:** -0.443

**Q:** Query (compound): CN(C)CCCCNC(=O)[C@H]1C[C@H]2C(=O)N[C@@H](CCCCN(C)C)C(=O)N2[C@H]1c1ccc(O)cc1 ; field requested: composite z-score
**A:** 0.821

**Q:** Query (compound): CC(C)N1CC=CC23O[C@@H]4/C=C\CCCOC(=O)C4[C@H]2C(=O)N(C(C)CO)[C@@H]3C1=O (stereo partly specified) ; field requested: composite z-score
**A:** -0.962

**Q:** Query (compound): COc1cccc(C)c1NC(=O)O[C@H]1[C@H](OC(=O)Nc2ccccc2)[C@@H](OC(=O)Nc2ccccc2)[C@@H](OC)O[C@@H]1CO ; field requested: composite z-score
**A:** 0.191

**Q:** Query (compound): COC(=O)c1ccc(OC)c(/C=C\CC(OC(=O)c2ccncc2)c2ccccc2)c1 (stereo unspecified) ; field requested: composite z-score
**A:** 1.09

**Q:** Query (compound): COC(=O)c1c2oc(c1C(=O)OC)C(=O)N[C@H](Cc1ccccc1)Cn1cc(nn1)C1(CCCCC1)NC(=O)N[C@H](CO)CC2 ; field requested: composite z-score
**A:** -0.857

====

# Assay Target: Dihydroorotate dehydrogenase (quinone), mitochondrial (Plasmodium falciparum (isolate 3D7))
# Protocol Notes: PfDHODH enzyme inhibitors, primary screen, biochemical, C-terminal His tag, absorbance 600 nm (AID 1175);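 note: recombinant parasite enzyme with a five histidine tag at its C terminus; test concentration not given here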
# Test Parameters: DCIP absorbance 600 nm, higher = more signal, called active from +8 up or from −8 down
Reported Metric: composite z-score
Number, no unit, nothing else.

Example entries and their recorded answers appear below.
> print(dat)
                                   compound    reported.metric  data.value
1  COc1ccc(C(O)C2C=CC3C(=O)N(c4ccccc4)C(=O)C3N2Nc2ccccc2F)c2ccccc12 (centres undefined)  composite z-score      -0.588
2  COC(=O)C1(CC(C)C)C=C2C(=C(C)C(=O)C2C)CN1 (centres undefined)  composite z-score       -1.11
3  O=C(N1CCOCC1)[C@]1(CCS(=O)(=O)c2ccccc2)N=C(c2ccc(OCCCO)cc2)O[C@@H]1c1ccccc1  composite z-score        2.06

Next, consider the following compound.
**Q:** Query (compound): COC(=O)[C@@]1(Cc2ccc(F)cc2)[C@H]2c3cc(C(=O)N4CCCC4)n(CCc4c[nH]c5cc(F)ccc45)c3C[C@H]2CN1C(=O)c1ccccc1 ; field requested: composite z-score
**A:** -0.362
